Assay procedure: Caspase-3/7 induction in CHO-K1 cells by small molecules, qHTS cell viability counter screen (AID 1346979); also: nearly all actives have a fitted effect of over 35% in size
Experimental parameters: CellTiter-Fluor fluorescence, 17 h; series mostly up to 92.4 µM
Records with an inconclusive call do not appear. Active and inactive are the calls of the source. Calls follow the shape of the dose curve; as a rule, active = well fitted cell-killing curve with a large enough effect in the repeat runs; inconclusive = weak or mixed curves, or effect the other way; inactive = no such curve, though single readings can be large or run the other way.
Measured quantity: Potency

>>> df
                                   molecule  reported_value
0                            CO[Si](C)(C)OC        inactive
1                       CCN(CC)C(=O)N(CC)CC        inactive
2                    CC(=O)Nc1ccc(C)c(Cl)c1        inactive
3  CCCCC(=O)O[C@]1(C(=O)CO)[C@H](C)C[C@H]2[C@@H]3CCC4=CC(=O)C=C[C@]4(C)[C@@]3(F)[C@@H](O)C[C@@]21C        inactive
4           NC(=O)Cc1cccc(C(=O)c2ccccc2)c1N        inactive
5  O=C1CCCCC1C1CCCCC1 (configuration not stated)        inactive
6  CCN(CC)CC1CCCCN1CC(=O)N1c2ccccc2C(=O)Nc2cccnc21 (configuration not stated)        inactive
7  COc1ccccc1N1CCN(CCCNc2cc(=O)n(C)c(=O)n2C)CC1        inactive

Fill in the blank: the reported Potency of Cc1ccc(C(C)C)cc1O is ____. inactive

Recorded Potency of Cn1cnc2c(F)c(Nc3ccc(Br)cc3Cl)c(C(=O)NOCCO)cc21 , please. inactive

Form field: reported Potency of CC1(O)CSC(C)(O)CS1 (configuration not stated) inactive

Can you share its Potency? I mean this molecule: O=C(O)c1cccc(Cl)c1Cl inactive
